Target: C. elegans (N2) complex I (NADH:ubiquinone oxidoreductase) (Caenorhabditis elegans, UniProt P24887+Q93873+Q94360)
Sequence (Q94360 17-199): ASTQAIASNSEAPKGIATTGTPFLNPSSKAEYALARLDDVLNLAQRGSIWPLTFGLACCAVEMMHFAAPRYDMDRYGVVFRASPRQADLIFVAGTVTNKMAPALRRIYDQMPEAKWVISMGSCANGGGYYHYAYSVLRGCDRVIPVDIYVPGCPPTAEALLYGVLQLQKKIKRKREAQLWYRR
Sequence (P24887 whole entry): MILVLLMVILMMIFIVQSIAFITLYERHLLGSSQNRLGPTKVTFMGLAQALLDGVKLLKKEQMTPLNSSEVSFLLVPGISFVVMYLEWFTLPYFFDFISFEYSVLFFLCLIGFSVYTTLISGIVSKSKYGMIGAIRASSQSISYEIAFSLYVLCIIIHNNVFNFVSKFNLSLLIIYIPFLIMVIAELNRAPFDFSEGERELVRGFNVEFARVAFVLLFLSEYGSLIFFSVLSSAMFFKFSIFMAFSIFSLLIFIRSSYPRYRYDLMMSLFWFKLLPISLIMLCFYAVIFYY
Sequence (Q93873 31-482): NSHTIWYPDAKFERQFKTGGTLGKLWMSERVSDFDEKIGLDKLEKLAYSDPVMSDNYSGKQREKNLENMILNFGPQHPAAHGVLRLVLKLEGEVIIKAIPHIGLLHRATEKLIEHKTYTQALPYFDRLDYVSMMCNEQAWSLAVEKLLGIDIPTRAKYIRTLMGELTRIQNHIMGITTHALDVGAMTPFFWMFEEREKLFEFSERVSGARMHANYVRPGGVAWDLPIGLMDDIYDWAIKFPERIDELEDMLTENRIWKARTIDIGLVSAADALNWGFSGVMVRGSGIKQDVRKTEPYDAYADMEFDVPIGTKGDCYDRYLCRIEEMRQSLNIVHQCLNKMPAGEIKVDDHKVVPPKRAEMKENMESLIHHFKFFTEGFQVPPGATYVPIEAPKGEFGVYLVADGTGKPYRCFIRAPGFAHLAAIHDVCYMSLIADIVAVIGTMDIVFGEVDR
Experiment: biochemical
Assay type: biochemical
Conditions: 15 µM; wild-type C. elegans mitochondria; mean of replicates; read-out: percent (%) in vitro complex I activity relative to solvent control
Rule for this label: t means remaining activity at 15 µM is less than 50%; f means remaining activity at 15 µM is at least 50%.

For orientation, consider the following solved cases.
COc1cc2c(cc1OC)C(C(C)c1ccc(CC(C)C)cc1)=NCC2 (stereo not shown) = t
CC(C)Cc1ccc(C(C)c2nc3ccccc3n2C)cc1 (stereo not shown) = t
COC(=O)Nc1nc2ccc(Sc3ccccc3)cc2[nH]1 [fenbendazole, reference compound] = f

[Q] A record lists COc1cc2c(cc1OC)C(/C=C/c1ccc(N(C)C)cc1)=NCC2 . Is its remaining activity at 15 µM below 50%?
[A] t

[Q] A record lists COC(=O)Nc1nc2ccc(C(=O)c3ccccc3)cc2[nH]1 [mebendazole, reference compound] . Is its remaining activity at 15 µM below 50%?
[A] f

[Q] A record lists COc1ccc(Cc2nccc3cc(OC)c(OC)cc23)cc1OC [Papaverine, reference compound] . Is its remaining activity at 15 µM below 50%?
[A] t

[Q] A record lists COc1cc2c(cc1OC)C(c1ccc(-c3ccc(Cl)c(Cl)c3)o1)=NCC2 . Is its remaining activity at 15 µM below 50%?
[A] f

---

Answer each item with its documented activity at 0.0025 µM.
Molecular target: M. musculus (heart) complex I (Mus musculus, UniProt P03888+Q91WD5+Q9DC70)
Sequence (Q91WD5 34-463): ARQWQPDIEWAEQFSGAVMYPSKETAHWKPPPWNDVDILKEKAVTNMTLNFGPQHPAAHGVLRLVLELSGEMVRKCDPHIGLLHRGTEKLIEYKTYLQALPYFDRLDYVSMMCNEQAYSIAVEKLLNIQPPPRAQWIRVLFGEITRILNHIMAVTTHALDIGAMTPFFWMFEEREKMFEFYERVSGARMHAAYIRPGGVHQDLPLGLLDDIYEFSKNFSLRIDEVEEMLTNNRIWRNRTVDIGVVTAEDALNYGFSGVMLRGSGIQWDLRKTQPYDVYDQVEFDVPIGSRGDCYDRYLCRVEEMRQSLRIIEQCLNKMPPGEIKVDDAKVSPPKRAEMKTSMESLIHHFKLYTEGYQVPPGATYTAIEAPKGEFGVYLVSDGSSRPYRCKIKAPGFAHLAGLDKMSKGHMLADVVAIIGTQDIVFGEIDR
Sequence (Q9DC70 36-224): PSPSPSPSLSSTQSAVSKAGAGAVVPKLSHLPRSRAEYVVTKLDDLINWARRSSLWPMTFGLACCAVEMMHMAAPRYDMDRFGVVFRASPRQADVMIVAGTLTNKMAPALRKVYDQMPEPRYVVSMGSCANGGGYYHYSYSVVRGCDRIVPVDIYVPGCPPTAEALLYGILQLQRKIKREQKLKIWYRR
Sequence (P03888 whole entry): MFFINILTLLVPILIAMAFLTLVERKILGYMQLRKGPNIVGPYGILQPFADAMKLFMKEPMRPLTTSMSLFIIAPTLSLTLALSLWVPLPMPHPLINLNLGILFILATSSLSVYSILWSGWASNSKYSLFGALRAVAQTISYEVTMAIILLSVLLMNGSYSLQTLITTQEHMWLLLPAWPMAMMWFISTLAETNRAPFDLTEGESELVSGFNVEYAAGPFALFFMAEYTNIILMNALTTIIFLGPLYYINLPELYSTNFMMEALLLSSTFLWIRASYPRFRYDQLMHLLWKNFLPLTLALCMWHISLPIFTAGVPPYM
Assay: biochemical
Format: biochemical
Details: M. musculus; dose 0.0025 µM; Mean of replicates; read-out: Complex I activity, dose-response data
Give bare numbers, in %.

CC(C)Cc1ccc(C(C)c2nc3ccccc3n2C)cc1 (stereo not shown) = 104

Batch request: activity at 0.0025 µM per item, same order as input.
1. COc1cc2c(cc1OC)C(C(C)c1ccc(CC(C)C)cc1)=NCC2 (stereo not shown)
2. COc1cc2c(cc1OC)C(c1ccc(-c3ccc(Cl)c(Cl)c3)o1)=NCC2
3. COc1cc2c(cc1OC)C(/C=C/c1ccc(N(C)C)cc1)=NCC2

[A]
1. 106
2. 107
3. 105

---

Biological target: C. elegans (N2) complex I (NADH:ubiquinone oxidoreductase) (Caenorhabditis elegans, UniProt P24887+Q93873+Q94360)
Assay: biochemical
Type: biochemical
Settings: 100 μM of NPD compound; C. elegans mitochondria; individual biological replicates; read-out: Percent in vitro activity, Complex I (single replicate Rep1-Rep4)
endpoint-label: activity at 100 µM

C=C(C)[C@H]1Cc2c(ccc3c2O[C@@H]2COc4cc(OC)c(OC)cc4[C@@H]2C3=O)O1 [Rotenone, reference compound] = 0%
COc1cc2c(cc1OC)C(/C=C/c1ccc(N(C)C)cc1)=NCC2 = 16.4%
CCCCCC[C@H]1C(=O)O[C@H](C)[C@H](NC(=O)c2cccc(NC=O)c2O)C(=O)O[C@@H](C)[C@@H]1OC(=O)CC(C)C [Antimycin A, reference compound] = 119%

[Q] Given COc1cc2c(cc1OC)C(c1ccc(-c3ccc(Cl)c(Cl)c3)o1)=NCC2 , respond with its activity at 100 µM.
[A] 25.5%

---

Molecular target: B. taurus (heart) complex I (Bos taurus, UniProt P03887+P17694+P42026)
Sequence (P03887 whole entry): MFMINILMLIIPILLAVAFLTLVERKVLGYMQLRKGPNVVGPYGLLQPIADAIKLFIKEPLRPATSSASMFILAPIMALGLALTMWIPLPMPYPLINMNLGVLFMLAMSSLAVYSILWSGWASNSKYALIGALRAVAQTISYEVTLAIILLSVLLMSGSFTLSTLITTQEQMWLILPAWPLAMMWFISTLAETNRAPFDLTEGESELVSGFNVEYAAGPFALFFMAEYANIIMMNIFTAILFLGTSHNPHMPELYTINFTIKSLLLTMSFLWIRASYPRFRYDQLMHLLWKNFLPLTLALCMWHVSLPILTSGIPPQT
Sequence (P17694 34-463): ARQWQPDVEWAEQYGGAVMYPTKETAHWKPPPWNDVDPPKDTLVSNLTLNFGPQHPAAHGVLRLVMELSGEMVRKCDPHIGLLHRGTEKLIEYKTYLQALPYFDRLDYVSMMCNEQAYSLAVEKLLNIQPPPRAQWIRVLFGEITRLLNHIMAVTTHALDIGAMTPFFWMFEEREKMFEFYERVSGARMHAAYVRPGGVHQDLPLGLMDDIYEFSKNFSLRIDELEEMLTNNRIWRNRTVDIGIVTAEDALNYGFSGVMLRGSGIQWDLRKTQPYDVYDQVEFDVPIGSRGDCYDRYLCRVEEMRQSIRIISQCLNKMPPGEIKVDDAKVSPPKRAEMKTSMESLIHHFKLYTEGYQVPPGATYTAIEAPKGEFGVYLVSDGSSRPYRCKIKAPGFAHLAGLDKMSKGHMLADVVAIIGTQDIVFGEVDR
Sequence (P42026 38-216): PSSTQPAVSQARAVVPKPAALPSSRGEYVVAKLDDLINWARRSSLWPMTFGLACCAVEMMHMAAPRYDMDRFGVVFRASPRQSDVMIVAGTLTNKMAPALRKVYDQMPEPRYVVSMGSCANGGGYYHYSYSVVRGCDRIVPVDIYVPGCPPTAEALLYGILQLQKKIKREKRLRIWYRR
Experiment: biochemical
Format: biochemical
Details: B. taurus; dose 0.0005 µM; Mean of replicates; read-out: Complex I activity, dose-response data
endpoint-label: activity at 0.0005 µM (%)
Answers are plain numbers, in %.

COc1cc2c(cc1OC)C(/C=C/c1ccc(N(C)C)cc1)=NCC2 = 92.3
COc1cc2c(cc1OC)C(C(C)c1ccc(CC(C)C)cc1)=NCC2 (stereo not shown) = 106
CC(C)Cc1ccc(C(C)c2nc3ccccc3n2C)cc1 (stereo not shown) = 101

Now look at this entry.
[Q] Please report activity at 0.0005 µM with B. taurus (heart) complex I (Bos taurus, UniProt P03887+P17694+P42026) for item COc1cc2c(cc1OC)C(c1ccc(-c3ccc(Cl)c(Cl)c3)o1)=NCC2 .
[A] 100

---

Biological target: M. musculus (heart) complex I (Mus musculus, UniProt P03888+Q91WD5+Q9DC70)
Assay: biochemical
Format: biochemical
Details: M. musculus; dose 0.0005 µM; individual replicates (Rep); read-out: Complex I activity, dose-response data
Answer each item with its documented activity at 0.0005 µM.
Answers are plain numbers, in %.

CC(C)Cc1ccc(C(C)c2nc3ccccc3n2C)cc1 (stereo not shown) = 105
COc1cc2c(cc1OC)C(C(C)c1ccc(CC(C)C)cc1)=NCC2 (stereo not shown) = 108
COc1cc2c(cc1OC)C(/C=C/c1ccc(N(C)C)cc1)=NCC2 = 104

Now look at this entry.
[Q] Given COc1cc2c(cc1OC)C(c1ccc(-c3ccc(Cl)c(Cl)c3)o1)=NCC2 , respond with its activity at 0.0005 µM.
[A] 103

---

Assay: in vitro
Settings: human, HEK293 Cell Viability Assay LC50
endpoint-label: CC50 at 2 days (µM)
Give bare numbers, in µM.

[Q] Given Fc1ccc(C(c2ccc(F)cc2)N2CCN(C/C=C/c3ccccc3)CC2)cc1 , respond with its CC50 at 2 days.
[A] 30.2

---

Biological target: C. elegans (N2) complex I (NADH:ubiquinone oxidoreductase) (Caenorhabditis elegans, UniProt P24887+Q93873+Q94360)
Experiment: biochemical
Format: biochemical
Settings: dose 0.0005 µM; wild-type C. elegans; mean of replicates; read-out: in vitro complex I activity relative to solvent control, Mean
endpoint-label: remaining activity at 0.0005 µM (%)
Numbers only, in %.

CC(C)(C)c1ccc(CCOc2ncnc3ccccc23)cc1 [Fenazaquin, reference compound] = 89.7
C=C(C)[C@H]1Cc2c(ccc3c2O[C@@H]2COc4cc(OC)c(OC)cc4[C@@H]2C3=O)O1 [Rotenone, reference compound] = 104
COC(=O)Nc1nc2ccc(Sc3ccccc3)cc2[nH]1 [fenbendazole, reference compound] = 102
Cc1nc2ccccc2n1Cc1ccc(Cl)cc1 [STK697993] = 93.4

Now look at this entry.
[Q] Given Cc1ccccc1OCCCCn1cnc2ccccc21 [Compound 7732524] , respond with its remaining activity at 0.0005 µM.
[A] 117

---

Target: B. taurus (heart) complex I (Bos taurus, UniProt P03887+P17694+P42026)
Test: biochemical
Format: biochemical
Conditions: Dose 37.5 µM; read-out: B. taurus mitochondrial complex I activity
// class assignment uses activity at 37.5 µM with these ranges: class 1: < 3%; class 2: ≥ 3% and < 7%; class 3: ≥ 7%

For orientation, consider the following solved cases.
CC(C)Oc1cccc(OCCn2cnc3ccccc32)c1 = class 1
Nc1nc2ccccc2n1CCOc1ccc(Br)cc1 = class 2
Cc1ccccc1OCCCn1c(C)nc2ccccc21 = class 2
Cc1ccc(SCCCCn2cnc3ccccc32)cc1 = class 3
Cc1ccc(OCCn2cnc3ccccc32)cc1 = class 3

[Q] Class? Entry: Cc1ccccc1OCCCCn1cnc2ccccc21
[A] class 1

[Q] Class? Entry: Cc1ccc(SCCCn2cnc3ccccc32)cc1
[A] class 1

---

Answer each item with its documented activity at 0.0025 µM.
Target: C. elegans (N2) complex I (NADH:ubiquinone oxidoreductase) (Caenorhabditis elegans, UniProt P24887+Q93873+Q94360)
Assay: biochemical
Format: biochemical
Conditions: Dose 0.0025 µM; read-out: C. elegans mitochondrial complex I activity
Numbers only, in %.

Cc1nc2ccccc2n1CCOc1ccccc1Cl [Compound 5561642] = 95
CCCOc1ccc(Cn2cnc3ccccc32)cc1 [Compound 7355741] = 99
Cc1ccc(OCCn2cnc3ccccc32)cc1 [Compound 5671538] = 106

Now look at this entry.
[Q] Given Cc1ccccc1OCCCCn1cnc2ccccc21 [Compound 7732524] , respond with its activity at 0.0025 µM.
[A] 138

---

Assay: in vitro
Conditions: human, HEK293 viability
endpoint-label: viability at 2 days, 6.3 µM (%)
Give bare numbers, in %.

[Q] Given Fc1ccc(C(c2ccc(F)cc2)N2CCN(C/C=C/c3ccccc3)CC2)cc1 , respond with its viability at 2 days, 6.3 µM.
[A] 100

---

Test system: C. elegans complex III (decylubiquinol-cytochrome C reductase)
Test: In vitro complex III activity assay, C. elegans mitochondria
Format: biochemical, Caenorhabditis elegans
Conditions: 100 µM compound, relative to solvent control, mean (SEM)
endpoint-label: % Activity Complex III

Known results for molecules:
COc1cc2c(cc1OC)C(/C=C/c1ccc(N(C)C)cc1)=NCC2 [NPD6303] = 78.10 (1.39) %
COc1ccc(-c2cc(=Nc3ccccc3N)c3ccccc3o2)cc1 [NPD6380] = 107.06 (1.36) %
O=C(NCCc1ccc(Cl)cc1)c1ccccc1C(F)(F)F [Wact-11] = 90.97 (1.75) %
Cc1cc(O)c(C(=O)/C=C/c2ccccc2)c(=O)o1 [NPD8366] = 76.74 (1.10) %
CCCCCCCCCCCCCCCc1cccc(O)c1C(=O)O [Anacardic acid] = 0.00 (0.00) %
COc1ccc(N=c2cc(-c3ccc(OC)cc3)oc3ccc(O)cc23)cc1 [NPD8034] = 95.08 (1.51) %

[Q] Given COc1ccc(-c2cc(=Nc3ccc(C)cc3)c3ccccc3o2)cc1OC [NPD1450] , respond with its % Activity Complex III.
[A] 111.72 (0.94) %
